// values below are reported residual activity
- Tested System: STK39 (human) (UniProt Q9UEW8)
- Assay Notes: radiometric filter-binding kinase assay, Kinase HotSpot
- Study Conditions: compound 0.5 µM; ATP 10 µM

{"Smiles Repr": "O=C1Nc2ccc(Br)cc2/C1=C\\c1cc2c([nH]1)CCCC2", "residual activity, %": 86}
{"Smiles Repr": "COc1ccc(C(=O)Nc2sc3c(c2C(N)=O)CCCC3)cc1OC", "residual activity, %": 101}
{"Smiles Repr": "N#C/C(=C\\c1ccc(O)c(O)c1)C(=O)NCc1ccccc1", "residual activity, %": 99.8}
{"Smiles Repr": "COc1ccc(Cl)cc1NC(=O)Nc1cc(C)nc2ccccc12", "residual activity, %": 98.5}
{"Smiles Repr": "Ic1cccc(CSc2nnc(-c3ccncc3)o2)c1", "residual activity, %": 101}
{"Smiles Repr": "COc1ccc2c(c1)c(C1=C(c3c[nH]c4ccccc34)C(=O)NC1=O)cn2CCCN(C)C", "residual activity, %": 111}
{"Smiles Repr": "COc1cc2ncnc(Nc3ccc(Oc4ccccc4)cc3)c2cc1OC", "residual activity, %": 102}
{"Smiles Repr": "COc1cc(Nc2c(C#N)cnc3cc(OCCCN4CCN(C)CC4)c(OC)cc23)c(Cl)cc1Cl", "residual activity, %": 93.6}
{"Smiles Repr": "CCCCc1c(-c2ccc(OC)cc2)[nH]c2nccnc12", "residual activity, %": 77.8}
{"Smiles Repr": "C[C@@H]1CCN(C(=O)CC#N)C[C@@H]1N(C)c1ncnc2[nH]ccc12", "residual activity, %": 95.1}
{"Smiles Repr": "O=C(c1cc2cc(O)ccc2[nH]1)c1cc2cc(O)ccc2[nH]1", "residual activity, %": 97.6}
{"Smiles Repr": "O=C1C(Cl)=C(N2C(=O)CCC2=O)C(=O)c2ccccc21", "residual activity, %": 97.3}
{"Smiles Repr": "NC(=O)c1cccc(-c2cc(Nc3ccc(OC(F)(F)F)cc3)ncn2)c1", "residual activity, %": 85.5}
{"Smiles Repr": "Cc1cncc2cccc(S(=O)(=O)N3CCCN(C(=O)CN)C[C@H]3C)c12", "residual activity, %": 95.3}
{"Smiles Repr": "CS(=O)(=O)CCNCc1ccc(-c2ccc3ncnc(Nc4ccc(OCc5cccc(F)c5)c(Cl)c4)c3c2)o1", "residual activity, %": 100}
{"Smiles Repr": "Cc1nc(-c2ccccc2)c(-c2ccncc2)o1", "residual activity, %": 97.1}
{"Smiles Repr": "N#Cc1c[nH]c2c[nH]/c(=N\\Cc3cccnc3)cc2/c1=N\\c1ccc(F)c(Cl)c1", "residual activity, %": 78.6}
{"Smiles Repr": "COc1ccc2c(c1)/C(=C/c1cnc[nH]1)C(O)=N2", "residual activity, %": 86.1}
{"Smiles Repr": "Cc1cccc(-c2nc(C(C)(C)C)[nH]c2-c2ccc3c(c2)OCO3)n1", "residual activity, %": 107}
{"Smiles Repr": "CN(C)CCCn1cc(C2=C(c3c[nH]c4ccccc34)C(=O)NC2=O)c2ccccc21", "residual activity, %": 91.9}
{"Smiles Repr": "CN(C)S(=O)(=O)c1ccc2c(c1)/C(=C/c1cc3c([nH]1)CCCC3)C(=O)N2", "residual activity, %": 99.5}
{"Smiles Repr": "CO[C@@H]1[C@H](N(C)C(=O)c2ccccc2)C[C@H]2O[C@]1(C)n1c3ccccc3c3c4c(c5c6ccccc6n2c5c31)C(=O)NC4", "residual activity, %": 96}
